In this section, each of the variants is paired with its reported fraction ligated.
B1: minF1; the commonest letter at each place (parent)
chain: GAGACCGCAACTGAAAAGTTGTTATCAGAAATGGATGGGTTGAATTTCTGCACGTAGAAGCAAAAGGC

- Variants of: B1
- Protocol Notes: fraction ligated after 30 min (ligated reads / total reads); higher = more ligase activity
- Assay Context: with F1*subA RNA substrate (template-directed ligation), 42 °C
Please reply with the value in numeric form only.

Some solved cases for reference:
INSERT INTO assay_data (residues, quantity_kind, endpoint_result) VALUES
  ('GAGACCGCAACTGAAAAGTTGTTATTAGAATTGGATGGGTTGAATTTCTGCACGTAGAAGCAAAAGGC [C26T A31T]', 'fraction ligated', 0.404),
  ('GAGACCGCAACTGAAAAGTTGTTTTCAGGAATGGATGGGTTGAATTTCTGCACGTAGAAGCAAAAGGC [A24T A29G]', 'fraction ligated', 0.00599),
  ('GAGACCGCAACTGAAAAGTTGTTATCAGGAAAGGATGGGTTGAATTTCTGCACGTAGAAGCAAAAGGC [A29G T32A]', 'fraction ligated', 0.0412),
  ('GAGACCGCAACTGAAAAGTTGTAATCAGAAATCGATGGGTTGAATTTCTGCACGTAGAAGCAAAAGGC [T23A G33C]', 'fraction ligated', 0.0701),
  ('GAGACCGCAACTGAAAAGTTGTTATTAGAAATGGATAGGTTGAATTTCTGCACGTAGAAGCAAAAGGC [C26T G37A]', 'fraction ligated', 0.00482),
  ('GAGACCGCAACTGAAAAGTTGTTATCCGAAATGGATGGGTTGATTTTCTGCACGTAGAAGCAAAAGGC [A27C A44T]', 'fraction ligated', 0.441),
  ('GAGACCGCAACTGAAAAGTTGTTATCAGAAATGGATTGGTTGACTTTCTGCACGTAGAAGCAAAAGGC [G37T A44C]', 'fraction ligated', 0.00343),
  ('GAGACCGCAACTGAAAAGTTGTCATCAGAAATGGACGGGTTGAATTTCTGCACGTAGAAGCAAAAGGC [T23C T36C]', 'fraction ligated', 0.00904);

Exam item: Form field: reported fraction ligated of GAGACCGCAACTGAAAAGTTGTTATCACAAATGGGTGGGTTGAATTTCTGCACGTAGAAGCAAAAGGC [G28C A35G]
Marked response: 0.0701

Exam item: Again, but for GAGACCGCAACTGAAAAGTTGTTATCACAAATCGATGGGTTGAATTTCTGCACGTAGAAGCAAAAGGC [G28C G33C]
Marked response: 0.641

Exam item: Again, but for GAGACCGCAACTGAAAAGTTGTGATCAGAAATGGATGGGTTGTATTTCTGCACGTAGAAGCAAAAGGC [T23G A43T]
Marked response: 0.0898
